Let's look at some compounds and their measured V1: maximum intensity, normalized using furimazine (Q-1) as a reference.
# study-target: nanoKAZ luciferase (Oplophorus gracilirostris, UniProt Q9GV45, A31E/A60N/A81I/F95D/I117V/K70R/L54V/L99Q/M102K/N193R/P142E/Q151K/Q38R/Q45L/V71I/Y165I)
# Construct: luciferase catalytic domain (nanoKAZ, 19 kDa) from the Oplophorus-derived luciferase; host or cells: cell-free: 1-Step Human Coupled IVT Kit, pT7CFE1-based vector
# Sequence (Q9GV45 other isoform, or with tags, fused parts or gaps with the stated changes): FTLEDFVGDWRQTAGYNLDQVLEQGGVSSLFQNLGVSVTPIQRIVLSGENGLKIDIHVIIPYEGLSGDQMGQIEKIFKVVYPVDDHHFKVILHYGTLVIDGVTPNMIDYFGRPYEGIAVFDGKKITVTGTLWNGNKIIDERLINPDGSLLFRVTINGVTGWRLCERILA
# method-summary: In vitro bioluminescence screening of imidazo[1,2-a]pyrazin-3(7H)-ones with nanoKAZ expressed in vitro (96-well luminometer, 2 h kinetic)
# Format: biochemical
# settings: Table 1; furimazine = 1
measured-attribute: V1: maximum intensity, normalized using furimazine (Q-1) as a reference

# compound, obs-value
data = [
    ("Cc1ccc(Cc2nc3c(Cc4ccccc4)[nH]c(-c4cccc(F)c4)cn-3c2=O)o1", 2.73),
    ("O=c1c(Cc2ccc(C3CC3)o2)nc2c(Cc3ccccc3)[nH]c(-c3ccccc3)cn1-2", 1.74),
    ("Cc1cccc(Cc2nc3c(Cc4cccc(F)c4)[nH]c(-c4ccccc4)cn-3c2=O)c1", 1.25),
    ("O=c1c(Cc2ccco2)nc2c(Cc3ccccc3)[nH]c(-c3ccccc3F)cn1-2", 1.39),
    ("O=c1c(Cc2ccccc2)nc2c(Cc3cccc(F)c3)[nH]c(-c3ccccc3)cn1-2", 1.12),
    ("O=c1c(Cc2ccco2)nc2c(Cc3cccc(F)c3)[nH]c(-c3ccccc3)cn1-2", 0.82),
    ("O=c1c(Cc2ccco2)nc2c(Cc3ccccc3F)[nH]c(-c3ccccc3)cn1-2", 0.84),
    ("O=c1c(Cc2ccc(O)cc2)nc2c(Cc3ccccc3)[nH]c(-c3ccc(O)cc3)cn1-2 [Q-86, reference compound]", 0.09),
]

---

# study-target: nanoKAZ luciferase (Oplophorus gracilirostris, UniProt Q9GV45, A31E/A60N/A81I/F95D/I117V/K70R/L54V/L99Q/M102K/N193R/P142E/Q151K/Q38R/Q45L/V71I/Y165I)
# Construct: luciferase catalytic domain (nanoKAZ, 19 kDa) from the Oplophorus-derived luciferase; host or cells: cell-free: 1-Step Human Coupled IVT Kit, pT7CFE1-based vector
# method-summary: In vitro bioluminescence screening of imidazo[1,2-a]pyrazin-3(7H)-ones with nanoKAZ expressed in vitro (96-well luminometer, 2 h kinetic)
# Format: biochemical
# settings: second table; furimazine = 1
measured-attribute: V3: area under the curve for 2 hours, normalized using furimazine (Q-1) as a reference

# cpd-smiles, obs-value
rows = [
    ("CCc1ccc(Cc2nc3c(Cc4cccc(F)c4F)[nH]c(-c4ccccc4)cn-3c2=O)o1", 2.69),
    ("CCc1ccc(Cc2nc3c(Cc4c(F)cccc4F)[nH]c(-c4ccccc4)cn-3c2=O)o1", 1.37),
    ("O=c1c(Cc2ccco2)nc2c(Cc3ccccc3)[nH]c(-c3cccc(O)c3)cn1-2", 0.85),
    ("Cc1cc(Cc2nc3c(Cc4cccc(F)c4)[nH]c(-c4ccccc4)cn-3c2=O)oc1C", 1.44),
    ("Cc1ccc(Cc2nc3c(Cc4c(F)cccc4F)[nH]c(-c4ccccc4)cn-3c2=O)o1", 1.43),
    ("CCc1oc(Cc2nc3c(Cc4cccc(F)c4F)[nH]c(-c4ccccc4)cn-3c2=O)cc1C", 0.39),
    ("Cc1cc(Cc2nc3c(Cc4ccccc4F)[nH]c(-c4ccccc4)cn-3c2=O)oc1C", 1.9),
]

---

# study-target: nanoKAZ luciferase (Oplophorus gracilirostris, UniProt Q9GV45, A31E/A60N/A81I/F95D/I117V/K70R/L54V/L99Q/M102K/N193R/P142E/Q151K/Q38R/Q45L/V71I/Y165I)
# Construct: luciferase catalytic domain (nanoKAZ, 19 kDa) from the Oplophorus-derived luciferase; host or cells: cell-free: 1-Step Human Coupled IVT Kit, pT7CFE1-based vector
# method-summary: In vitro bioluminescence screening of imidazo[1,2-a]pyrazin-3(7H)-ones with nanoKAZ expressed in vitro (96-well luminometer, 2 h kinetic)
# Format: biochemical
# settings: second table; furimazine = 1
measured-attribute: V4: area under the curve for ten minutes, normalized using furimazine (Q-1) as a reference

# compound, obs-value
records = [
    ("O=c1c(Cc2ccco2)nc2c(Cc3ccccc3)[nH]c(-c3cccc(O)c3)cn1-2 [Q-149]", 1.05),
    ("Cc1ccc(Cc2nc3c(Cc4c(F)cccc4F)[nH]c(-c4ccccc4)cn-3c2=O)o1 [Q-121]", 1.37),
    ("CCc1cc(Cc2nc3c(Cc4cccc(F)c4F)[nH]c(-c4ccccc4)cn-3c2=O)oc1C [Q-135]", 1.19),
    ("O=c1c(Cc2ccccc2)nc2c(Cc3cccc(F)c3F)[nH]c(-c3ccccc3)cn1-2 [Q-117]", 0.7),
    ("CCc1ccc(Cc2nc3c(Cc4cccc(F)c4F)[nH]c(-c4ccccc4)cn-3c2=O)o1 [Q-127]", 1.55),
    ("O=c1c(Cc2ccco2)nc2c(Cc3cccc(F)c3F)[nH]c(-c3ccccc3)cn1-2 [Q-107]", 1.27),
    ("CCCc1ccc(Cc2nc3c(Cc4ccccc4)[nH]c(-c4ccccc4)cn-3c2=O)o1 [Q-133]", 1.33),
]

---

# study-target: nanoKAZ luciferase (Oplophorus gracilirostris, UniProt Q9GV45, A31E/A60N/A81I/F95D/I117V/K70R/L54V/L99Q/M102K/N193R/P142E/Q151K/Q38R/Q45L/V71I/Y165I)
# Construct: luciferase catalytic domain (nanoKAZ, 19 kDa) from the Oplophorus-derived luciferase; host or cells: cell-free: 1-Step Human Coupled IVT Kit, pT7CFE1-based vector
# method-summary: In vitro bioluminescence screening of imidazo[1,2-a]pyrazin-3(7H)-ones with nanoKAZ expressed in vitro (96-well luminometer, 2 h kinetic)
# Type: biochemical
# settings: Table 1; furimazine = 1
measured-attribute: V3: area under the curve for ten minutes, normalized using furimazine (Q-1) as a reference

# cpd-smiles, obs-value
measured = [
    ("COc1cccc(Cc2nc3c(Cc4ccccc4F)[nH]c(-c4ccccc4)cn-3c2=O)c1", 1.49),
    ("O=c1c(Cc2ccco2)nc2c(Cc3ccccc3F)[nH]c(-c3ccccc3)cn1-2", 0.91),
    ("Cc1ccc(Cc2nc3c(Cc4cccc(F)c4)[nH]c(-c4ccccc4)cn-3c2=O)o1", 2.20),
    ("CCc1ccc(Cc2nc3c(Cc4cccc(F)c4)[nH]c(-c4ccccc4)cn-3c2=O)o1", 2.13),
    ("O=c1c(Cc2ccc(C(F)(F)F)o2)nc2c(Cc3ccccc3)[nH]c(-c3ccccc3)cn1-2", 1.11),
    ("Cc1ccc(Cc2nc3c(Cc4ccccc4)[nH]c(-c4cccc(F)c4)cn-3c2=O)o1", 2.32),
    ("O=c1c(Cc2ccccc2)nc2c(Cc3ccccc3)[nH]c(-c3c(F)cccc3F)cn1-2", 1.48),
    ("Cc1ccc(Cc2nc3c(Cc4ccccc4Cl)[nH]c(-c4ccccc4)cn-3c2=O)o1", 1.28),
]

---

# study-target: nanoKAZ luciferase (Oplophorus gracilirostris, UniProt Q9GV45, A31E/A60N/A81I/F95D/I117V/K70R/L54V/L99Q/M102K/N193R/P142E/Q151K/Q38R/Q45L/V71I/Y165I)
# Construct: luciferase catalytic domain (nanoKAZ, 19 kDa) from the Oplophorus-derived luciferase; host or cells: cell-free: 1-Step Human Coupled IVT Kit, pT7CFE1-based vector
# method-summary: In vitro bioluminescence screening of imidazo[1,2-a]pyrazin-3(7H)-ones with nanoKAZ expressed in vitro (96-well luminometer, 2 h kinetic)
# Format: biochemical
# settings: Table 1; furimazine = 1
Entry flag: YES if V1: maximum intensity, normalized using furimazine (Q-1) as a reference reaches 2; NO if it does not.

# compound, group-label
measured = [
    ("O=c1c(Cc2ccccc2F)nc2c(Cc3ccccc3)[nH]c(-c3ccccc3)cn1-2", "NO"),
    ("COc1cccc(Cc2nc3c(Cc4ccccc4F)[nH]c(-c4ccccc4)cn-3c2=O)c1", "NO"),
    ("COc1cccc(Cc2nc3c(Cc4ccccc4)[nH]c(-c4ccccc4)cn-3c2=O)c1", "NO"),
    ("O=c1c(Cc2ccccc2)nc2c(Cc3ccccc3F)[nH]c(-c3ccccc3)cn1-2", "NO"),
    ("Cc1cc(Cc2nc3c(Cc4ccccc4)[nH]c(-c4ccccc4)cn-3c2=O)oc1C", "YES"),
    ("O=c1c(Cc2ccccc2)nc2c(Cc3ccccc3)[nH]c(-c3c(F)cccc3F)cn1-2", "NO"),
    ("O=c1c(Cc2cccc(F)c2)nc2c(Cc3ccccc3)[nH]c(-c3ccccc3)cn1-2", "NO"),
    ("CCc1ccc(Cc2nc3c(Cc4ccccc4F)[nH]c(-c4ccccc4)cn-3c2=O)o1", "YES"),
    ("CCc1ccc(Cc2nc3c(Cc4ccccc4)[nH]c(-c4ccccc4)cn-3c2=O)o1", "YES"),
    ("O=c1c(Cc2ccco2)nc2c(Cc3ccccc3)[nH]c(-c3c(F)cccc3F)cn1-2", "NO"),
    ("CCc1ccc(Cc2nc3c(Cc4ccccc4)[nH]c(-c4ccccc4F)cn-3c2=O)o1", "YES"),
    ("Cc1cccc(Cc2nc3c(Cc4ccccc4)[nH]c(-c4ccccc4)cn-3c2=O)c1", "NO"),
    ("O=c1c(Cc2ccc(C(F)(F)F)o2)nc2c(Cc3ccccc3)[nH]c(-c3ccccc3)cn1-2", "NO"),
    ("O=c1c(Cc2ccco2)nc2c(Cc3ccccc3)[nH]c(-c3ccc(O)cc3)cn1-2 [Q-80, reference compound]", "YES"),
]

Where do the numbers come from? From patent US12612411B1.
